The reader will find reported kon values listed item by item below.
molecular target: T1, Human C5 (human, UniProt P01031 19-1676); assay: SPR, mAb captured by anti-hFc, 37C
T1 construct: The natural protein has a beta and an alpha chain; also called complement factor 5; complement component 5
Could you give me the number in M⁻¹ s⁻¹? Just the number is fine.

What does the data say about its kon? Entry: H4H12169P (antibody, human IgG4, V domains shown) VH: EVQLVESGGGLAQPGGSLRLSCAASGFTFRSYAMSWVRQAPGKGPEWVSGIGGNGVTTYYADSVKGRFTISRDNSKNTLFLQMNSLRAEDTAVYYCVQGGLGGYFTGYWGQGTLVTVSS VL: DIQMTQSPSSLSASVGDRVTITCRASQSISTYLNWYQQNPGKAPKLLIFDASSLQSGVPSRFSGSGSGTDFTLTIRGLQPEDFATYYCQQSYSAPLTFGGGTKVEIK 115000

What does the data say about its kon? Entry: H4H12164P (antibody, human IgG4, V domains shown) VH: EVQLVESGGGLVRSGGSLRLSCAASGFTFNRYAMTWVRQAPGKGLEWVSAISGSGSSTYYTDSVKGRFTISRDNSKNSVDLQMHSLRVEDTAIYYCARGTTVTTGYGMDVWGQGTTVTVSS VL: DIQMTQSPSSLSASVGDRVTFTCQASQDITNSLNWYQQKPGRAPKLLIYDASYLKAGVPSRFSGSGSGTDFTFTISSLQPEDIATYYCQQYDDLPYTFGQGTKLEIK 396000

What does the data say about its kon? Entry: H4H11683N (antibody, human IgG4, V domains shown, also called H2M11683N) VH: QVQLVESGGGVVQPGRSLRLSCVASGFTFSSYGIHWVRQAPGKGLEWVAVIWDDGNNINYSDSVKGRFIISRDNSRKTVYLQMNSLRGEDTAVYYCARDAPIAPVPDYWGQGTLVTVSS VL: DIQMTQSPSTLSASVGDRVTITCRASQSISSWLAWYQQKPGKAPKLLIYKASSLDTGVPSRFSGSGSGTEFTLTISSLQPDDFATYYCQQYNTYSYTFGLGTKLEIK 454000

What does the data say about its kon? Entry: H4H12171P (antibody, human IgG4, V domains shown) VH: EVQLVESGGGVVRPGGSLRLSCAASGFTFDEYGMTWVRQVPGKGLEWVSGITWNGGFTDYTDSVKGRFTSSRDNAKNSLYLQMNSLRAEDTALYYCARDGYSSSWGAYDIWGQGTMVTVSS VL: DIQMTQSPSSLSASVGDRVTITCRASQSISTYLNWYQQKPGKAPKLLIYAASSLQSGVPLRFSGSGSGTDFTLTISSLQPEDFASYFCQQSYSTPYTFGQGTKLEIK 122000

Data credit: patent US20170355757A1
